System: Adenosine receptor A2a (Rattus norvegicus, UniProt P30543) | Read-out: Ki
Sequence (P30543 whole entry): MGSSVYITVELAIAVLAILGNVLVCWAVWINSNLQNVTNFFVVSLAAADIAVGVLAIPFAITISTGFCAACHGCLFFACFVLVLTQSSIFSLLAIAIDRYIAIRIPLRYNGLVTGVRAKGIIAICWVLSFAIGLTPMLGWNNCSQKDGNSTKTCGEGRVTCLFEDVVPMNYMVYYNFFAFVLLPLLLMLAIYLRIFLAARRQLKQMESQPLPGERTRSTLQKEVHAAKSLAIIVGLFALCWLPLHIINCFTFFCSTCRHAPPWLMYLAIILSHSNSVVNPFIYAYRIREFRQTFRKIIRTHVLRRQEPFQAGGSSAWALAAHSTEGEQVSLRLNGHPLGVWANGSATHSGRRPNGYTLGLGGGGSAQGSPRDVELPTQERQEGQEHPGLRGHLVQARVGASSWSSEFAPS

{"columns": ["query.smiles", "Ki (µM)"],
 "data": [
  ["OC[C@H]1O[C@@H](n2cnc3c(NCc4ccc(O)cc4)ncnc32)[C@H](O)[C@@H]1O", 2.62],
  ["Oc1ccc(CSCc2ccc(O)cc2)cc1", 24.1]
]}
